# TARGET_OR_TEST_SYSTEM: PARD3_3, Q8TEW0
# Sequence (Q8TEW0 582-685): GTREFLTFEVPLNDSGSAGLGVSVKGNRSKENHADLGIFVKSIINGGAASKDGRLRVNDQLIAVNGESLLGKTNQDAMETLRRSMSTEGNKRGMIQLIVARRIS
# TEST_METHOD_NOTES: holdup assay
# Design: key: below the threshold = too weak to quantify, mostly under pKd 3.1 to 4
# COND: plain residues with an end cap or a label only (N-terminal biotin on a linker: ado-ado)
REPORTED_METRIC: pKd

Record excerpt, results attached:
DDENIRTSDV [PLEKHA2, Q9HB19]: below the threshold
IKAIVDLTGL [TRAF2, Q12933]: below the threshold
VDSTVKVWTC [TRAF7, Q6Q0C0]: 4.66
KSGKQTMLVV [TRIM29, Q14134;Q14134-2]: below the threshold
PKRSFIESNV [TANC1, Q9C0D5]: below the threshold
QHKTQLQTLI [BPIFA2, Q96DR5]: 3.83

Lab note: each binder below needs its pKd filled in.
1. EVNETDDTKM [KCNJ1, P48048]
2. ETQVTAETVI [TMEM225B, P0DP42]
3. PRAEAEDSFL [PDGFRB, P09619]
4. LSEFKAMDSI [CTNNA1, P35221]
5. QGPVETESVV [SLC45A4, Q5BKX6]
6. YLEPVLSSEL [ATP2A2, P16615;P16615-3]

-- reply
below the threshold
4.35
4.11
below the threshold
3.81
below the threshold

Lab note: each binder below needs its pKd filled in.
1. TASPAKETSF [SLC2A7, Q6PXP3]
2. SKENVQETQI [LRRC4B, Q9NT99]
3. VNKSKLLTDV [KCNA1, Q09470]
4. GNSVLKSTQF [SLC22A12, Q96S37]

-- reply
below the threshold
3.78
below the threshold
below the threshold
